Assay: Permeability of the compound by PAMPA method
Assay type: ADME
Conditions: read-out: Peff
measurement-kind: Papp (×10⁻⁶ cm/s)
Record the value in ×10⁻⁶ cm/s, omitting the unit from your answer.

Request: Give its Papp value. Item: "CCS(=O)(=O)N1CC[C@H](Nc2c(Br)cnc3[nH]c(-c4cc(C)n(-c5ccc(C(=O)N6CCOCC6)cc5)c4C)nc23)C1"
Result: 13.1

Request: I have this compound here, "CCS(=O)(=O)N1CC[C@H](Nc2c(Br)cnc3[nH]c(-c4cc(C)n(-c5ccc(C(=O)NCCN(C)C)cc5)c4C)nc23)C1" , and I need its recorded Papp.
Result: 2.53

Request: Any idea what its Papp is? The compound is "CCS(=O)(=O)N1CC[C@H](Nc2c(Br)cnc3[nH]c(-c4cc(C)n(-c5ccc(NC(=O)CN(C)C)cc5C)c4C)nc23)C1"
Result: 48.7

Request: Which measured Papp value corresponds to "CCS(=O)(=O)N1CC[C@H](Nc2c(Br)cnc3[nH]c(-c4cc(C)n(-c5cc(C(=O)N6CCN(C)CC6)ccc5C)c4C)nc23)C1" ?
Result: 35.7

Source of measurements: ChEMBL document CHEMBL5335808
